# tested target: TNKS2 ARC4 (Homo sapiens)
# Construct: ankyrin repeat cluster 4 domain; FRET: 6xHis-mCerulean (CFP) fusion; DSF, NMR, crystal: MBP and His tag cleaved by TEV, residues 487-649 printed for crystal; E. coli BL21(DE3)
# protocol summary: biochemical
# Set-up: FRET competition: inhibition of CFP-ARC domain binding to YFP-REAGDGEE peptide
# settings: inhibitor
# IC50 annotations
property label: IC50 (µM)

INSERT INTO results (compound, property_label, reported_relation, reading) VALUES
  ('COc1cc(C2C(C(=O)c3ccc4c(c3)OCCO4)=C(O)C(=O)N2CCCN2CCOCC2)ccc1O (stereo not drawn) [compound 45, 45]', 'IC50', '=', 78),
  ('Cc1ccccc1COc1ccc(C(=O)C2=C(O)C(=O)N(CCCN(C)C)C2c2cccc(O)c2)cc1 (stereo not drawn) [compound 28, 28]', 'IC50', '>', 1000),
  ('O=C(C1=C(O)C(=O)N(CCc2ccccc2)C1c1ccccc1)c1ccc2c(c1)OCCO2 (stereo not drawn) [compound 41, 41]', 'IC50', '=', 65);

* * *

# pIC50 annotations
# tested target: TNKS2 ARC4 (Homo sapiens, UniProt Q9H2K2)
# Construct: ankyrin repeat cluster 4 domain; FRET: 6xHis-mCerulean (CFP) fusion; DSF, NMR, crystal: MBP and His tag cleaved by TEV, residues 487-649 printed for crystal; E. coli BL21(DE3)
# Sequence (Q9H2K2 487-649): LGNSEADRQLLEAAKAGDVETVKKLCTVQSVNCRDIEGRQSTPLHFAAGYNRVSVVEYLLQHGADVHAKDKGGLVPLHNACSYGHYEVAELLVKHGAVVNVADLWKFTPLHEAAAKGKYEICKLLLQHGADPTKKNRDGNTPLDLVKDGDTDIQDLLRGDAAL
# protocol summary: biochemical
# Parameters: FRET competition: inhibition of CFP-ARC domain binding to YFP-REAGDGEE peptide
pIC50: −log10 of the molar value.
property label: pIC50

INSERT INTO assay_data (molecule, reported_relation, reading) VALUES
  ('COc1ccc(C(=O)C2=C(O)C(=O)N(CCCN3CCOCC3)C2c2ccccc2)cc1OC (stereo not shown) [compound 29, 29]', '<', 3.00),
  ('N=C(N)NCCCN1C(=O)C(O)=C(C(=O)c2ccc3c(c2)OCCO3)C1c1cccc(O)c1 (stereo not shown) [S5]', '=', 3.92),
  ('Cc1cc(C(=O)C2=C(O)C(=O)N(CCCN(C)C)C2c2ccc(O)cc2)ccc1OC(C)C (stereo not shown) [compound 34, 34]', '<', 3.00),
  ('COCCN1C(=O)C(O)=C(C(=O)c2ccc3c(c2)OCCO3)C1c1cccc(O)c1 (stereo not shown) [compound 35, 35]', '=', 3.52);

* * *

# tested target: TNKS2 ARC4 (Homo sapiens, UniProt Q9H2K2)
# Construct: ankyrin repeat cluster 4 domain; FRET: 6xHis-mCerulean (CFP) fusion; DSF, NMR, crystal: MBP and His tag cleaved by TEV, residues 487-649 printed for crystal; E. coli BL21(DE3)
# Set-up: DSF thermal shift of TNKS2 ARC4, stabilization over DMSO control
# settings: binder
property label: ΔTm ± SD (°C)

INSERT INTO assay_data (molecule, tested_target, property_label, reading) VALUES
  ('CCN(CC)CCCN1C(=O)C(O)=C(C(=O)c2ccc3c(c2)OCCO3)C1c1cccc(O)c1 (centres unmarked) [compound 13, 13]', 'TNKS2 ARC4 (Homo sapiens, UniProt Q9H2K2)', 'ΔTm ± SD (°C)', 4.82),
  ('CCN(CC)CCCN1C(=O)C(O)=C(C(=O)c2ccc3c(c2)OCCO3)C1c1cccc(OC)c1 (centres unmarked) [compound 12, 12]', 'TNKS2 ARC4 (Homo sapiens, UniProt Q9H2K2)', 'ΔTm ± SD (°C)', 4.03),
  ('CCN(CC)CCCN1C(=O)C(O)=C(C(=O)c2ccc(OCc3ccc(C)cc3)cc2)C1c1ccc(O)cc1 (centres unmarked) [compound 11, 11]', 'TNKS2 ARC4 (Homo sapiens, UniProt Q9H2K2)', 'ΔTm ± SD (°C)', 0.07),
  ('COCCCN1C(=O)C(O)=C(C(=O)c2ccc3c(c2)OCCO3)C1c1cccc(O)c1 (centres unmarked) [compound 15, 15]', 'TNKS2 ARC4 (Homo sapiens, UniProt Q9H2K2)', 'ΔTm ± SD (°C)', 0.78),
  ('O=C(C1=C(O)C(=O)N(CCCN2CCOCC2)C1c1ccc(F)cc1)c1ccc2c(c1)OCCO2 (centres unmarked) [compound 43, 43]', 'TNKS2 ARC4 (Homo sapiens, UniProt Q9H2K2)', 'ΔTm ± SD (°C)', 1.61),
  ('N=C(N)NCCCN1C(=O)C(O)=C(C(=O)c2ccc3c(c2)OCCO3)C1c1ccccc1 (centres unmarked) [S3]', 'TNKS2 ARC4 (Homo sapiens, UniProt Q9H2K2)', 'ΔTm ± SD (°C)', 1.20),
  ('CCC(CC)CCCN1C(=O)C(O)=C(C(=O)c2ccc3c(c2)OCCO3)[C@@H]1c1ccc(O)cc1 [S8]', 'TNKS2 ARC4 (Homo sapiens, UniProt Q9H2K2)', 'ΔTm ± SD (°C)', 2.44),
  ('COc1cccc(C2C(C(=O)c3ccc4c(c3)OCCO4)=C(O)C(=O)N2CCCN2CCNCC2)c1 (centres unmarked) [S1]', 'TNKS2 ARC4 (Homo sapiens, UniProt Q9H2K2)', 'ΔTm ± SD (°C)', 0.69);

The measured values listed here are drawn from paper doi:10.1101/2025.03.31.646301v1.
